Hi, quick share: literature Kd data for Platelet-derived growth factor receptor beta (Homo sapiens), several sources combined.

Check out these entries, answers already filled in.
>>> assay_result("COc1ccc(-c2cc3c(Nc4cccc(C)c4)ncnc3[nH]2)cc1")
"100 to 1000 nM"
>>> assay_result("COc1ccc(-c2cc3c(NCc4cccc(C)c4)ncnc3[nH]2)cc1")
"100 to 1000 nM"
>>> assay_result("Cc1cnc(NC(=O)Cc2ccc(OCc3ccccc3)cc2)s1")
"> 10000 nM"
>>> assay_result("COc1ccc(-c2cc3c(Oc4ccc(Cl)cc4)ncnc3[nH]2)cc1")
"100 to 1000 nM"

Prompt: Answer briefly: Kd recorded on Platelet-derived growth factor receptor beta (Homo sapiens) for COc1ccc(-c2cc3c(Sc4ccc(F)c(Cl)c4)ncnc3[nH]2)cc1
Response: 100 to 1000 nM

Prompt: Answer briefly: Kd recorded on Platelet-derived growth factor receptor beta (Homo sapiens) for O=C(Cc1ccc(OCc2ccccc2)cc1)Nc1nc2ccccc2s1
Response: > 10000 nM

Prompt: Answer briefly: Kd recorded on Platelet-derived growth factor receptor beta (Homo sapiens) for CC(C)(C)c1cc(NC(=O)Cc2ccc(NC(=O)c3ccc4cnccc4n3)cc2)no1
Response: < 100 nM

Prompt: Answer briefly: Kd recorded on Platelet-derived growth factor receptor beta (Homo sapiens) for COc1ccc(-c2cc3c(Sc4ccccc4)ncnc3[nH]2)cc1
Response: 100 to 1000 nM

Prompt: Answer briefly: Kd recorded on Platelet-derived growth factor receptor beta (Homo sapiens) for COC(=O)c1cccc(Nc2ncnc3[nH]c(-c4cccc(OC)c4)cc23)c1
Response: 1000 to 10000 nM

====

Hi, quick share: literature Kd data for UniProtKB P09619, several sources combined.

>>> assay_result("COc1cccc(-c2cc3c(N[C@H](C)c4ccccc4)ncnc3[nH]2)c1")
"0.1 to 1 µM"
>>> assay_result("COc1cccc2sc(NC(=O)Cc3ccc(OCc4ccccc4)cc3)nc12")
"> 10 µM"
>>> assay_result("CC(C)(C)c1cc(NC(=O)Cc2ccc(NC(=O)c3cnc4ccccc4c3)cc2)no1")
"< 0.1 µM"
>>> assay_result("CC(C)(C)c1cc(NC(=O)Cc2ccc(NC(=O)c3cccc4cccnc34)cc2)no1")
"1 to 10 µM"
>>> assay_result("CC(C)(C)c1cc(NC(=O)Cc2ccc(O)cc2)no1")
"> 10 µM"
>>> assay_result("COc1ccc(-c2cc3c(Oc4ccc(F)cc4)ncnc3[nH]2)cc1")
"0.1 to 1 µM"
>>> assay_result("COc1ccc(-c2cc3c(Nc4ccc(F)cc4)ncnc3[nH]2)cc1")
"0.1 to 1 µM"
>>> assay_result("Cn1cc(C(=O)Nc2ccc(CC(=O)Nc3cc(C(C)(C)C)on3)cc2)c2ccccc21")
"< 0.1 µM"

Prompt: Answer briefly: Kd recorded on UniProtKB P09619 for Cc1csc(NC(=O)Cc2ccc(OCc3ccccc3)cc2)n1
Response: > 10 µM

Prompt: Answer briefly: Kd recorded on UniProtKB P09619 for COc1ccc(-c2cncc(N[C@@H](C)c3cccc(NC(=O)c4cncc(C)c4)c3)n2)cc1OC
Response: 0.00082 µM

Prompt: Answer briefly: Kd recorded on UniProtKB P09619 for COC(=O)C(Nc1ncnc2[nH]c(-c3ccc(OC)cc3)cc12)c1ccccc1 (centres unmarked)
Response: 0.1 to 1 µM

Prompt: Answer briefly: Kd recorded on UniProtKB P09619 for Cc1cc(C)n(C(=O)Nc2ccc(Cl)cc2)n1
Response: > 10 µM

Prompt: Answer briefly: Kd recorded on UniProtKB P09619 for COc1ccc(-c2cc3c(Oc4cccc(C)c4)ncnc3[nH]2)cc1
Response: 1 to 10 µM

Prompt: Answer briefly: Kd recorded on UniProtKB P09619 for CC(C)Cc1ccc(C(C)C(=O)Nc2ccnn2-c2ccccc2)cc1 (centres unmarked)
Response: > 10 µM

====

Hi, quick share: literature Kd data for Platelet-derived growth factor receptor beta (Homo sapiens), several sources combined.

Check out these entries, answers already filled in.
>>> assay_result("COc1ccc(-c2cc3c(Oc4ccc(C)cc4)ncnc3[nH]2)cc1")
"1 to 10 µM"
>>> assay_result("COc1ccc(-c2cc3c(Sc4ccc(Cl)cc4)ncnc3[nH]2)cc1")
"1 to 10 µM"
>>> assay_result("COc1cccc(-c2cc3c(Oc4ccccc4)ncnc3[nH]2)c1")
"1 to 10 µM"
>>> assay_result("CC(C)(C)c1cc(NC(=O)Cc2ccc(OCc3ccccc3)cc2)on1")
"< 0.1 µM"
>>> assay_result("O=C(Cc1ccc(OCc2ccccc2)cc1)Nc1nc(-c2ccc(Cl)cc2)cs1")
"> 10 µM"
>>> assay_result("COc1cccc(-c2cc3c(Nc4cccc(O)c4)ncnc3[nH]2)c1")
"1 to 10 µM"
>>> assay_result("COc1ccc(SC(=O)Nc2cc(C(C)(C)C)on2)cc1")
"1 to 10 µM"
>>> assay_result("CC(C)(C)c1cc(NC(=O)Cc2ccc(F)cc2)on1")
"0.1 to 1 µM"
>>> assay_result("COc1ccc(-c2cc3c(Nc4ccc(F)c(Cl)c4)ncnc3[nH]2)cc1")
"> 10 µM"

Now for another entry.
Prompt: Answer briefly: Kd recorded on Platelet-derived growth factor receptor beta (Homo sapiens) for COc1ccc(-c2cc3c(Sc4ccc(C)cc4)ncnc3[nH]2)cc1
Response: 0.1 to 1 µM
